Data origin, for the record: ChEMBL document CHEMBL5055673

- measured target: Proteinase-activated receptor 1 (Homo sapiens) (UniProt P25116)
- Sequence (P25116 whole entry): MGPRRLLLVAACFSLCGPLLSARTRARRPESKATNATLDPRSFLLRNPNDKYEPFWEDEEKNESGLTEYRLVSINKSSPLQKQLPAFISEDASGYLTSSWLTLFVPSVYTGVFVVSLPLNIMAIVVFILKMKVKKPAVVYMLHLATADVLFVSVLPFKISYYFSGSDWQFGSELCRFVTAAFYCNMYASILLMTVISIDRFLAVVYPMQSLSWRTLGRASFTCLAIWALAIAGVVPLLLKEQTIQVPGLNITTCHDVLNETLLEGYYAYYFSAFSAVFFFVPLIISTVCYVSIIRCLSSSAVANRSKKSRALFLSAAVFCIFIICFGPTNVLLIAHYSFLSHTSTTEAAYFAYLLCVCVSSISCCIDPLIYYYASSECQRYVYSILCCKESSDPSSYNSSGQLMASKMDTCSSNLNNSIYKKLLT
- run description: Activation of PAR-1 in human platelet-rich plasma assessed as induction of platelet aggregation by turbidimetric method relative to S/Phe/FLLRNP
- Format: cell-based
Numbered stars: 1 amine (or outer) side, 2 acyl side, 3 side chain; on linkers, the order of the positions; unused ones are H or OH. Square brackets hold non-standard residues; d marks the D form. Peptide text beside a SMILES is read from it. Phe(F5) = N[C@@H](Cc1c(F)c(F)c(F)c(F)c1F)C(=O)O; X2 = O=C([C@H](Cc1c(F)cc(F)c(F)c1F)N[*:1])[*:2]; X3 = O=C([C@H](Cc1cc(F)c(F)c(F)c1F)N[*:1])[*:2]
quantity: Activity (%)
Give just the number in %; leave the unit off.

Worked cases, answers included:
molecule	assay result
CC(C)C[C@H](NC(=O)[C@H](CC(C)C)NC(=O)[C@H](Cc1c(F)c(F)c(F)c(F)c1F)NC(=O)[C@@H](N)CO)C(=O)N[C@@H](CCCNC(=N)N)C(=O)N[C@@H](CC(N)=O)C(=O)N1CCC[C@H]1C(N)=O (H-S[Phe(F5)]LLRNP-NH2)	0
CC(C)C[C@H](NC(=O)[C@H](Cc1c(F)cc(F)c(F)c1F)NC(=O)[C@@H](N)CO)C(=O)N[C@@H](CC(C)C)C(=O)N[C@@H](CC(N)=O)C(=O)N1CCC[C@H]1C(N)=O (H-S[X2]LLNP-NH2)	34

// moving on: another record for Activity
// Activity lookup, molecule = CC(C)C[C@H](NC(=O)[C@H](CC(C)C)NC(=O)[C@H](Cc1cc(F)c(F)c(F)c1F)NC(=O)[C@@H](N)CO)C(=O)N[C@@H](CCCNC(=N)N)C(=O)N[C@@H](CC(N)=O)C(=O)N1CCC[C@H]1C(N)=O (H-S[X3]LLRNP-NH2) , result: 6
